Data origin: ChEMBL document CHEMBL3988442

# target: Shiga toxin 2 (Escherichia coli O157:H7) (UniProt P09385+P09386)
# measurementProtocol: E. coli 0.157:H7 Shiga Toxin SOP - stx2 screening assay
# Type: functional
# Parameters: scale not given: direction of the effect not stated beside the values
# appliedConditions: 30 µM
propertyMeasured: Percent Effect (%)

{"compound": "CC(C)C(=O)N1CCCC(c2ncncc2-c2ccncc2)C1 (configuration not stated)", "unitsSymbol": "%", "obsValue": -34.6}
{"compound": "CCc1nc(CN2CCCN(c3nc4ccccc4o3)CC2)no1", "unitsSymbol": "%", "obsValue": -69.6}
{"compound": "CN(CCCc1cnn(C)c1)C(=O)C1COc2ccccc2C1 (configuration not stated)", "unitsSymbol": "%", "obsValue": -16.4}
{"compound": "N#Cc1cc(NC(=O)C2CC=CC2)ccc1N1CCC(O)CC1", "unitsSymbol": "%", "obsValue": -9.47}
{"compound": "Cc1cc(-c2cnc(NCc3cccnc3)nc2C(C)(C)C)on1", "unitsSymbol": "%", "obsValue": 2.89}
{"compound": "Cc1nc(CN2CCCC(N(C)Cc3nnsc3Cl)C2)no1 (configuration not stated)", "unitsSymbol": "%", "obsValue": 18.2}
{"compound": "CCOc1ccccc1C(CC(=O)Nc1nc(C)cs1)NC(C)=O (configuration not stated)", "unitsSymbol": "%", "obsValue": 30.8}
{"compound": "CCN(CC1CCOC1)C(=O)c1cccnc1N1CCOCC1 (configuration not stated)", "unitsSymbol": "%", "obsValue": 25.6}
{"compound": "Cc1[nH]ncc1C(=O)N1CCCC(n2cncn2)C1 (configuration not stated)", "unitsSymbol": "%", "obsValue": 22.7}
{"compound": "Cc1cnn(C2CCCN(C(=O)c3sccc3C#N)C2)c1 (configuration not stated)", "unitsSymbol": "%", "obsValue": -36.4}
{"compound": "CCc1n[nH]c(C2CN(Cc3nccn3CC)CCO2)n1 (configuration not stated)", "unitsSymbol": "%", "obsValue": -10.4}
{"compound": "O=S1(=O)CCN(Cc2cccnc2)[C@H]2CCN(c3ncccn3)CC[C@H]21", "unitsSymbol": "%", "obsValue": -36.2}
{"compound": "COc1cccc([C@@H]2CN(C(=O)c3ccc(C)cc3O)C[C@H]2C(=O)O)c1", "unitsSymbol": "%", "obsValue": -5.94}
{"compound": "Cn1nc2c(cc1=O)CN(Cc1nnc(C3CC3)o1)CC2", "unitsSymbol": "%", "obsValue": -53.6}
{"compound": "CCc1nc(C2CCCN2C(=O)C2=COCC2)no1 (configuration not stated)", "unitsSymbol": "%", "obsValue": -3.44}
{"compound": "CC(C)C(=O)N1CCN(Cc2csc(-c3ncccn3)n2)CC1", "unitsSymbol": "%", "obsValue": 0.445}
{"compound": "CCc1nc(CN2CCCC(N(C)Cc3cnn(C)c3)C2)no1 (configuration not stated)", "unitsSymbol": "%", "obsValue": -30.2}
{"compound": "O=C1CCCN1CC1CN(C(=O)CC2CCCC2)Cc2nccn2C1 (configuration not stated)", "unitsSymbol": "%", "obsValue": -4.12}
{"compound": "CCOc1ccc(C#N)cc1NCC(=O)Nc1cc(F)ccc1F", "unitsSymbol": "%", "obsValue": 5.62}
{"compound": "Cc1cnn(CC2CN(c3cnc4ccccc4n3)CCO2)c1 (configuration not stated)", "unitsSymbol": "%", "obsValue": -0.837}
{"compound": "Cc1nc(C)n(C2CCCN(C(=O)Cc3n[nH]c4ccccc34)C2)n1 (configuration not stated)", "unitsSymbol": "%", "obsValue": -3.54}
{"compound": "Cc1ccn(-c2ccc(C(=O)N3CCCC(C(N)=O)C3)cc2)n1 (configuration not stated)", "unitsSymbol": "%", "obsValue": 8.96}
{"compound": "O=C(c1cnn2c1OCCC2)N1CCN(C/C=C/c2ccccc2)CC1", "unitsSymbol": "%", "obsValue": -6.18}
{"compound": "COc1ccc(CN(C)Cc2nc3c(cnn3C)c(=O)[nH]2)cc1OC", "unitsSymbol": "%", "obsValue": -8.89}
{"compound": "Cn1nc2c(cc1=O)CN(Cc1coc(-c3cccs3)n1)CC2", "unitsSymbol": "%", "obsValue": -29.8}
{"compound": "O=C1CC(c2cccc(O)c2)c2sc(C(=O)O)c(-c3ccccc3)c2N1 (configuration not stated)", "unitsSymbol": "%", "obsValue": -24.7}
{"compound": "Cc1cc(CC(=O)N2CCCC2c2nc(C(C)C)no2)on1 (configuration not stated)", "unitsSymbol": "%", "obsValue": 8.6}
{"compound": "CN(C)C(=O)N1C[C@@H]2COC[C@]2(CNS(C)(=O)=O)C1", "unitsSymbol": "%", "obsValue": -0.0161}
{"compound": "CC(Cn1cccn1)NCc1csc(-c2cccs2)n1 (configuration not stated)", "unitsSymbol": "%", "obsValue": 21.1}
{"compound": "NC(=O)Cc1ccc(NC(=O)C2CCOCC2)cc1", "unitsSymbol": "%", "obsValue": 20.8}
{"compound": "Cc1ccc(CN2CC[C@H]3OCC[C@@H](c4nc(C)no4)[C@H]3C2)cc1", "unitsSymbol": "%", "obsValue": 8.54}
{"compound": "COc1cccc(C(=O)N2CCCC(C(=O)CCc3ccccc3)C2)c1 (configuration not stated)", "unitsSymbol": "%", "obsValue": -7.01}
{"compound": "CCc1nnc2n1CCN(C(=O)c1ccc3[nH]cnc3c1)C2", "unitsSymbol": "%", "obsValue": -13.3}
{"compound": "CCOC(CC)C(=O)NCCC(=O)N1CCN(c2ccccn2)CC1 (configuration not stated)", "unitsSymbol": "%", "obsValue": -11.4}
{"compound": "CC(C)NC(=O)Nc1ccc(CNCc2cccc(OC(F)F)c2)cc1", "unitsSymbol": "%", "obsValue": -103}
{"compound": "O=C(N[C@@H]1CN(c2ncccn2)C[C@@H]2CCCO[C@@H]21)c1cnccn1", "unitsSymbol": "%", "obsValue": -15.4}
{"compound": "O=C(CN1CCCC1Cn1cncn1)NC(C1CC1)C1CC1 (configuration not stated)", "unitsSymbol": "%", "obsValue": -2.93}
{"compound": "CC(C)CCN1CN=C(NS(=O)(=O)c2ccc(F)cc2)NC1", "unitsSymbol": "%", "obsValue": -27.2}
{"compound": "Cc1ccccc1CNC(=O)CN1CCN(Cc2nccn2C)CC1", "unitsSymbol": "%", "obsValue": 6.67}
{"compound": "COCC1CCN(C(=O)c2cccc(S(=O)(=O)NC3CCCC3)c2)C1 (configuration not stated)", "unitsSymbol": "%", "obsValue": -4.97}
{"compound": "Cc1cnn(CC2CN(CC(=O)Nc3nnc(C)s3)CCO2)c1 (configuration not stated)", "unitsSymbol": "%", "obsValue": 7.65}
{"compound": "Cc1noc(C(C)C)c1C(=O)N1CCCN(Cc2cscn2)CC1", "unitsSymbol": "%", "obsValue": -6.33}
{"compound": "Cc1ccc(NS(=O)(=O)c2cc3c(c(C(=O)O)c2)OCCO3)c(F)c1", "unitsSymbol": "%", "obsValue": -5.6}
{"compound": "CC(C)=CCN1CCOC(Cn2nc(C)cc2C)C1 (configuration not stated)", "unitsSymbol": "%", "obsValue": 24.4}
{"compound": "CCc1ccc(CN2CCCC(CO)(CCOC)C2)cc1 (configuration not stated)", "unitsSymbol": "%", "obsValue": -14}
{"compound": "Cc1cc(C)n(CC2CCCN2C(=O)Cc2c(C)noc2C)n1 (configuration not stated)", "unitsSymbol": "%", "obsValue": 9.09}
{"compound": "c1ccc2sc(CN3CCCC3c3noc(C4CC4)n3)nc2c1 (configuration not stated)", "unitsSymbol": "%", "obsValue": 3.03}

* * *

# target: Aspartate--tRNA(Asp/Asn) ligase (Mycobacterium tuberculosis (strain ATCC 25618 / H37Rv)) (UniProt P9WFW3); note: in the data most compounds retested in dose-response had high values
# Sequence (P9WFW3 whole entry): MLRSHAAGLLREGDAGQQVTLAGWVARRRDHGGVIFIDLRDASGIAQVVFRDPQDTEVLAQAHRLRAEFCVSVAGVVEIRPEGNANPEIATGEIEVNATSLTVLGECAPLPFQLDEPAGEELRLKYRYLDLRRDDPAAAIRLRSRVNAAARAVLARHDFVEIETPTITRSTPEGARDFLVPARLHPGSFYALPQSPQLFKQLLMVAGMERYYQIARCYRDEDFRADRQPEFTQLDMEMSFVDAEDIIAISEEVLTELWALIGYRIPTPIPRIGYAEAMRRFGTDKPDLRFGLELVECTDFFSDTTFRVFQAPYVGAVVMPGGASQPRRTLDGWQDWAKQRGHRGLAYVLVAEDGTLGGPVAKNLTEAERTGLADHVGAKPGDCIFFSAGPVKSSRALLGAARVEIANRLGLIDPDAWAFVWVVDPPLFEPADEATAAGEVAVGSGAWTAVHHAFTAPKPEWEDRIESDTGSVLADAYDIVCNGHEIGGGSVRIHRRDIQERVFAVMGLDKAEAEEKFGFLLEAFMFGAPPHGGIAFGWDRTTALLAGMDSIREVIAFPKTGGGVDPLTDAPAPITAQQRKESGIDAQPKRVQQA
# measurementProtocol: Assay for Asp RNA synthetase-1 from Mycobacterium tuberculosis
# Type: functional
# Set-up: scale not given: direction of the effect not stated beside the values
# appliedConditions: 30 µM
Reported values of Percent Effect for individual entries

{"molecule": "CC(C)c1nnc2n1CCN(C(=O)c1ccc(CN(C)C)cc1)C2", "unitsSymbol": "%", "Percent Effect": -0.75}
{"molecule": "Cc1ncsc1CN1C[C@H](C(=O)N2CCCO2)[C@@H]2CCO[C@@H]2C1", "unitsSymbol": "%", "Percent Effect": -1.48}
{"molecule": "Cc1cnn(C2CCCN(C(=O)c3cccc(Cn4ccnc4)c3)C2)c1 (stereo not drawn)", "unitsSymbol": "%", "Percent Effect": 0.538}
{"molecule": "CC(C)c1ncc2c(n1)CN(Cc1nc(Cc3ccccc3)no1)CC2", "unitsSymbol": "%", "Percent Effect": -4.05}
{"molecule": "O=C(c1cc2c(s1)CCC2)N1CCCCC1Cn1cccn1 (stereo not drawn)", "unitsSymbol": "%", "Percent Effect": 1.25}
{"molecule": "CS(=O)(=O)NCc1cc2n(n1)CCCN(Cc1nc3ccccc3[nH]1)C2", "unitsSymbol": "%", "Percent Effect": -3.96}
{"molecule": "COCCn1c2c(ccc1=O)CC(NS(C)(=O)=O)CC2 (stereo not drawn)", "unitsSymbol": "%", "Percent Effect": 2.72}
{"molecule": "c1cc2n(n1)CC(CNCc1ccc(OCC3CC3)nc1)CN2 (stereo not drawn)", "unitsSymbol": "%", "Percent Effect": 0.395}
{"molecule": "O=C(c1ccc(Br)o1)N1CCCC(n2cncn2)C1 (stereo not drawn)", "unitsSymbol": "%", "Percent Effect": 5.01}
{"molecule": "Cc1cc(C(=O)NCC(C)N2CCc3ccccc32)no1 (stereo not drawn)", "unitsSymbol": "%", "Percent Effect": -0.278}
{"molecule": "Cc1cccc(CN2C[C@@H]3COC[C@]3(CNC(=O)c3ccsc3)C2)n1", "unitsSymbol": "%", "Percent Effect": -2.88}
{"molecule": "CCN1CC(C(=O)NC(C)(C)CNC(=O)OC(C)(C)C)CC1=O (stereo not drawn)", "unitsSymbol": "%", "Percent Effect": 4.36}
{"molecule": "C1CC(NCc2nc(C3CC3)no2)CN(Cc2noc(C3CC3)n2)C1 (stereo not drawn)", "unitsSymbol": "%", "Percent Effect": -2.94}
{"molecule": "c1nc2c(c(-c3ccsc3)n1)CCN(Cc1ccoc1)CC2", "unitsSymbol": "%", "Percent Effect": 8.04}
{"molecule": "CN(C)S(=O)(=O)N1C[C@H](Oc2cccnc2)[C@H]2OCCC[C@H]21", "unitsSymbol": "%", "Percent Effect": 2.32}
{"molecule": "Cc1ccc(NC(=O)NC(C)C(=O)N2CCS(=O)(=O)CC2)cc1 (stereo not drawn)", "unitsSymbol": "%", "Percent Effect": 1.19}
{"molecule": "O=C([C@@H]1C[C@@H]2CCN(CCc3ccccc3)C[C@H]2O1)N1CCCC1", "unitsSymbol": "%", "Percent Effect": -0.868}
{"molecule": "Cc1ccc2c(ccn2CC(=O)NC[C@@H]2CCCN3CCCC[C@H]23)c1", "unitsSymbol": "%", "Percent Effect": 2.12}
{"molecule": "Cc1ccc(-c2nnc(SCC(=O)O)n2-c2ccc(C)cc2)cc1", "unitsSymbol": "%", "Percent Effect": 0.544}
{"molecule": "CCn1ncnc1C(C)NC(=O)C1CCN(C(C)C)CC1 (stereo not drawn)", "unitsSymbol": "%", "Percent Effect": 3.06}
{"molecule": "CCN(CC)CCNC(=O)c1cnc(C(C)(C)C)s1", "unitsSymbol": "%", "Percent Effect": -0.45}
{"molecule": "CN1CC(=O)N(c2cnn(C)c2)CC12CCN(Cc1nccn1C)C2 (stereo not drawn)", "unitsSymbol": "%", "Percent Effect": -3.88}
{"molecule": "CCn1ccnc1CNCC1CCCN1c1cccnn1 (stereo not drawn)", "unitsSymbol": "%", "Percent Effect": -8.36}
